Each entry below carries its recorded GI50.
Test system: HCC 2998
Method description: NCI tumour cell line growth inhibition, 48 h
The source made the active and inactive calls. No stated cut-off is given here; in the data, active = GI50 up to about 1.1 µM and inactive = higher.

Compound	GI50
CC12CCC(CC1)C(C)(C)O2 [EUCALYPTOL]	26.4 µM (inactive)

Problem: System HCC 2998. Read-out GI50. Item `Cc1ccc(OC(=O)N2C/C(=C\c3ccccc3)C(=O)/C(=C/c3ccccc3)C2)cc1` . Report value.
Solution: 10 µM (inactive)

Problem: Quote GI50 with test system HCC 2998 for CC(C)(C)OC(=O)N1N=NC2C3OC(CC3=O)C21 (stereo unspecified)
Solution: > 100 µM (inactive)

Problem: Lab note: record GI50 of `O=C1C(=C(I)I)c2ccccc2-c2ccccc21` tested on HCC 2998.
Solution: 2.51 µM (inactive)

Problem: # assay system HCC 2998: give GI50 of Oc1cc(O)cc(/C=C/c2ccc(O)c(O)c2)c1 [PICEATANNOL]
Solution: 16.7 µM (inactive)

Problem: Write GI50 of `CCCCCCCc1c(Cl)nc(Cl)nc1Cl` ; system used: HCC 2998
Solution: 5.81 µM (inactive)

Problem: Report GI50 under test system HCC 2998 for `Cc1cc(OCc2nnc3n2N=C(c2cc(F)c(Cl)cc2Cl)/C(=C/c2ccc(Cl)cc2)S3)ccc1Cl` .
Solution: 19.6 µM (inactive)

Problem: Give reported GI50 for COc1ccc(C=C2C(C)=NN(c3cccc(Cl)c3)C23C(Cl)C(=O)N3c2nc3ccccc3s2)cc1 (stereo unspecified) (HCC 2998)
Solution: 3 µM (inactive)

Problem: Write down measured GI50 (HCC 2998) for this compound. `C=CCOc1ccc(C2(c3ccc(OCC=C)cc3)C(=O)Nc3ccccc32)cc1`
Solution: > 10 µM (inactive)

Problem: Give measured GI50 for `Oc1cc(Cl)ncn1` (HCC 2998).
Solution: > 100 µM (inactive)

Problem: Give GI50 only, for `COc1cc(/C=C2\C(=O)N(C(=O)c3ccc(NC(C)=O)cc3)N=C2C)ccc1O` , using HCC 2998 data.
Solution: > 100 µM (inactive)
